Where do the numbers come from? From ChEMBL document CHEMBL1121929.

System: Canis familiaris
assayProcedure: Diuretic activity was measured after oral administration in conscious water loaded dogs at 20 mg/kg after 1 hr
Type: functional, Canis lupus familiaris, Urine
Measured Oral diuretic activity accompanies every entry in the list below.

Worked examples follow.
1. O=C(O)COc1cc(Cl)c2c(-c3ccccc3F)noc2c1	82.1 u equiv of [Na+] kg-1 hr-1
2. Cc1c(OCC(=O)O)ccc2c(-c3ccccc3F)noc12	478.9 u equiv of [Na+] kg-1 hr-1
3. O=C(O)COc1ccc2c(-c3ccc4ccccc4c3)noc2c1Cl	53.3 u equiv of [Na+] kg-1 hr-1
4. O=C(O)COc1ccc2c(-c3ccccc3Cl)noc2c1Cl	48.2 u equiv of [Na+] kg-1 hr-1
5. O=C(O)COc1c(Cl)cc2c(-c3ccccc3F)noc2c1Cl	85.7 u equiv of [Na+] kg-1 hr-1
6. Cc1ccc(-c2noc3c(Cl)c(OCC(=O)O)ccc23)s1	122.4 u equiv of [Na+] kg-1 hr-1

Query :: Which measured Oral diuretic activity value corresponds to O=C(O)COc1ccc2c(-c3ccoc3)noc2c1Cl ?
Result :: 293 u equiv of [Na+] kg-1 hr-1

Query :: Which measured Oral diuretic activity value corresponds to O=C(O)COc1ccc2c(-c3ccc(F)cc3F)noc2c1Cl ?
Result :: 41.7 u equiv of [Na+] kg-1 hr-1

Query :: Which measured Oral diuretic activity value corresponds to Cc1cccc(-c2noc3c(Cl)c(OCC(=O)O)ccc23)c1C ?
Result :: 219.9 u equiv of [Na+] kg-1 hr-1

Query :: Which measured Oral diuretic activity value corresponds to O=C(O)COc1ccc2c(-c3ccc(O)cc3F)noc2c1Cl ?
Result :: 43.5 u equiv of [Na+] kg-1 hr-1

Query :: Which measured Oral diuretic activity value corresponds to O=C(O)COc1ccc2c(-c3cc(F)ccc3F)noc2c1Cl ?
Result :: 926.2 u equiv of [Na+] kg-1 hr-1

Query :: Which measured Oral diuretic activity value corresponds to O=C(O)COc1c(Cl)c(Cl)c2c(-c3ccccc3F)noc2c1Cl ?
Result :: 109 u equiv of [Na+] kg-1 hr-1

====

Tested on: Mus musculus
assayProcedure: The diuretic activity was measured after oral administration in saline loaded mice at 64 mg/kg after 5 hr
Assay type: functional, Urine
# binarize Oral diuretic activity: threshold 0.8 m equiv [Na+] 5hr-1kg-1 inclusive, high side 1.0, low side 0.0

Example entries and their recorded answers appear below.
1) O=C(O)COc1ccc(-c2noc3ccccc23)c(Cl)c1Cl	1.0
2) Cc1ccc(-c2noc3c(Cl)c(OCC(=O)O)ccc23)cc1	0.0

Query :: Tell me whether Oral diuretic activity is at least 0.8 m equiv [Na+] 5hr-1kg-1 here: Cc1ccc(-c2noc3c(Cl)c(OCC(=O)O)ccc23)s1
Result :: 0.0

Query :: Tell me whether Oral diuretic activity is at least 0.8 m equiv [Na+] 5hr-1kg-1 here: O=C(O)COc1ccc2c(-c3ccccc3F)noc2c1I
Result :: 1.0

====

System: Mus musculus
assayProcedure: The diuretic activity was measured after oral administration in saline loaded mice at 64 mg/kg after 5 hr
Assay type: functional, Urine
reportedProperty: Oral diuretic activity (m equiv [Na+] 5hr-1kg-1)
// units = m equiv [Na+] 5hr-1kg-1; emit number, no label

Query :: Which measured Oral diuretic activity value corresponds to O=C(O)COc1ccc2c(-c3cccc(F)c3F)noc2c1Cl ?
Result :: 5.8

Query :: Which measured Oral diuretic activity value corresponds to O=C(O)COc1ccc(C(=O)c2cccs2)c(Cl)c1Cl ?
Result :: 3.31

Query :: Which measured Oral diuretic activity value corresponds to O=C(O)CSc1ccc2c(-c3ccccc3F)noc2c1Cl ?
Result :: 4.67

Query :: Which measured Oral diuretic activity value corresponds to CC1(c2ccccc2)Cc2cc(OCC(=O)O)c(Cl)c(Cl)c2C1=O (centres undefined) ?
Result :: 7.6

Query :: Which measured Oral diuretic activity value corresponds to O=C(O)COc1ccc2c(-c3ccc(Cl)c(Cl)c3)noc2c1Cl ?
Result :: 0.1

Query :: Which measured Oral diuretic activity value corresponds to O=C(O)COc1cc2onc(-c3ccccc3F)c2cc1Cl ?
Result :: 0.2

Query :: Which measured Oral diuretic activity value corresponds to CCOC(=O)COc1ccc2c(-c3ccccc3F)noc2c1Cl ?
Result :: 1.48

Query :: Which measured Oral diuretic activity value corresponds to O=C(O)COc1cc2onc(-c3ccccc3F)c2cc1Br ?
Result :: 0.28

Query :: Which measured Oral diuretic activity value corresponds to O=C(O)COc1ccc2c(-c3ccccn3)noc2c1Cl ?
Result :: 1

Query :: Which measured Oral diuretic activity value corresponds to Cc1cccc(-c2noc3c(Cl)c(OCC(=O)O)ccc23)c1C ?
Result :: 0.02

Query :: Which measured Oral diuretic activity value corresponds to O=C(O)COc1c(Cl)cc2c(-c3ccccc3F)noc2c1Cl ?
Result :: 0.41

Query :: Which measured Oral diuretic activity value corresponds to Cc1ccsc1-c1noc2c(Cl)c(OCC(=O)O)ccc12 ?
Result :: 0.7

Query :: Which measured Oral diuretic activity value corresponds to O=C(O)COc1ccc2c(-c3ccoc3)noc2c1Cl ?
Result :: 2.1

Query :: Which measured Oral diuretic activity value corresponds to O=C(O)COc1ccc2c(-c3ccccc3Cl)noc2c1Cl ?
Result :: 9.1

Query :: Which measured Oral diuretic activity value corresponds to O=C(O)COc1ccc2c(-c3ccccc3F)noc2c1 ?
Result :: 2.89

Query :: Which measured Oral diuretic activity value corresponds to O=C(O)COc1ccc2c(-c3ccc4ccccc4c3)noc2c1Cl ?
Result :: 1.1
